tested on: A549/ATCC NSCLC; assay: NCI-60 one-dose screen, 48 h (100 = growth as untreated, 0 = no growth, -100 = all killed); conditions: 10 µM
The panel holds about 83,000 compounds, 20% with a hit somewhere; the sample as a whole holds those more often.
measurement-type: growth (%)
Your answer should be a plain number; it is taken to be in %.

structure-as-smiles: C#C[C@]1(O)CC[C@H]2[C@@H]3CC=C4c5sc(Nc6ccc(C(F)(F)F)cn6)nc5CC[C@]4(C)[C@H]3CC[C@@]21C
unit-abbreviation: %
growth: 7.15
--
structure-as-smiles: C#C[C@]1(O)CC[C@H]2[C@@H]3CC=C4c5sc(Nc6cc(C)cc(C)n6)nc5CC[C@]4(C)[C@H]3CC[C@@]21C
unit-abbreviation: %
growth: 9.23
--
structure-as-smiles: Cn1cc(-c2nnc(N)nc2-c2c[nH]c3ccc(F)cc23)c2cc(Br)cnc21
unit-abbreviation: %
growth: 66.2

Next:
Need growth, item CCOc1ccc(/C=N/NC(=O)Cn2nc(Cc3ccc(OC)cc3)c3onc(C)c3c2=O)cc1
0.727
